Target: human NAMPT (Homo sapiens, UniProt P43490)
Sequence (P43490 whole entry): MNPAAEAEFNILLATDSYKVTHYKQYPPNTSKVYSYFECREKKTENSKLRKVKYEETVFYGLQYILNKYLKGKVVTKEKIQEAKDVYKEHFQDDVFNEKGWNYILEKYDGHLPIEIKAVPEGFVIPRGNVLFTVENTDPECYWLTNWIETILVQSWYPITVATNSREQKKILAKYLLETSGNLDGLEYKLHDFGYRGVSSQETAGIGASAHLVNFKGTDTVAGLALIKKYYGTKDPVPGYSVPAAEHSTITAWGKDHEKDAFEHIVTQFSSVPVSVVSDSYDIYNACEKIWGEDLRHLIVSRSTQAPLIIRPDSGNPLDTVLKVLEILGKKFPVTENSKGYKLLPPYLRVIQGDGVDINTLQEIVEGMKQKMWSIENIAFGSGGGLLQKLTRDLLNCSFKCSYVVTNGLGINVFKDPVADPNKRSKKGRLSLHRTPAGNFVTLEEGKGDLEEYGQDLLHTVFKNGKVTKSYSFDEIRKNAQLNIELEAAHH
Experiment: Human recombinant enzyme assay (NMN fluorescence biochemical assay, activation of NAMPT)
Conditions: Table A; human recombinant NAMPT, NMN formation, 60 min

COMPOUND | AC1.4 Human, µM
Cc1cccc(C(=O)N2CC[C@]3(C2)C[C@@H](NC(=O)NCc2ccc(Cl)cc2)C3)c1 | 7.5
COC(=O)C1CCC(S(=O)(=O)N2CC3(CC(NC(=O)NCc4ccc(OC)cc4)C3)C2)CC1 (centres unmarked) | 17.6
COc1ccc(CNC(=O)NC2CC3(C2)CN(C(=O)c2ccc(C(C)(C)O)cc2)C3)cc1 | 4.1
NC(=O)c1ccc(CNC(=O)NC2CC(c3ccccc3)C2)cc1 (centres unmarked) | 9.9
COc1ccc(CNC(=O)NCCCCCCOc2ccccc2)cc1 | 2.0
CC(C)(C)OC(=O)N1CC[C@]2(C1)C[C@@H](NC(=O)NCc1ccc(Cl)cc1)C2 | 6.8
COc1ccc(CNC(=O)NC2CC3(C2)CC(C(=O)N2CCCc4cnccc42)C3)cc1 (centres unmarked) | 0.3
COc1ccc(CNC(=O)NC2CC3(C2)CN(C(=O)c2cccc(C)c2)C3)cc1 | 4.1

====

The entries below are paired with their reported pEC50.
Target: human NAMPT (Homo sapiens)
Test: Human recombinant enzyme assay (NMN fluorescence biochemical assay, activation of NAMPT)
Conditions: Table A; human recombinant NAMPT, NMN formation, 60 min; read-out: EC50 Human
Protocol: Compounds described herein were assayed for their ability to stimulate the synthesis of nicotinamide mononucleotide (NMN) by the enzyme NAMPT. […] Dose responses were measured using an assay to detect the formation of nicotinamide mono-nucleotide. […] The plates were read for fluorescence (Excitation/Emission=355 nm/460 nm) using an EnVision plate reader after 40 mins of incubation at ambient temperature.
pEC50: −log10 of the molar value.
PROPERTY LABEL: pEC50

COMPOUND | MEAS VALUE
COc1ccc(CNC(=O)NC2CC3(C2)CN(S(=O)(=O)Cc2ccccc2Cl)C3)cc1 | 4.47
CN(C)c1ccccc1C(=O)NC1CC2(CC(NC(=O)NCc3ccc(Cl)cc3)C2)C1 (stereo not shown) | 4.41
COc1ccc(CNC(=O)NC2CC3(C2)CN(C(=O)c2ccc(=O)n(C)c2)C3)cc1 | 4.27
Cc1ccc(C(=O)N2CC3(CC(NC(=O)NCc4ccc(=O)[nH]c4)C3)C2)cc1 | 4.44

====

Biological target: human NAMPT (Homo sapiens, UniProt P43490)
Experiment: Human recombinant enzyme assay (NMN fluorescence biochemical assay, activation of NAMPT)
Settings: Table A; human recombinant NAMPT, NMN formation, 60 min; read-out: EC50 Human
PROPERTY LABEL: EC50 (µM)

COMPOUND | DISPLAY UNIT | MEAS VALUE
COc1ccc(CNC(=O)NC2CC3(C2)CN(C(=O)C2CCCN(C(=O)OC(C)(C)C)C2)C3)cc1 (stereo not shown) [Compound 136] | µM | 57.7
COc1ccc(CNC(=O)NC2CC3(C2)CC(C(=O)NC2Cc4ccccc4C2)C3)cc1 (stereo not shown) [Compound 95] | µM | 13.3
COc1ccc(CNC(=O)NC2CC3(C2)CC(C(=O)NCc2ccc(C#N)cc2F)C3)cc1 (stereo not shown) [Compound 77] | µM | 35.1
COc1ccc(CNC(=O)NCCCCC2CCN(C(=O)c3ccccc3)CC2)cc1 [Compound 20] | µM | 4.7
